- system-tested: ratM1 (Rattus norvegicus)
- Construct: expressed in transfected cells; host or cells: CHO cells (stated generally for the assay, not specifically for rat M1)
- Sequence (P08482 whole entry): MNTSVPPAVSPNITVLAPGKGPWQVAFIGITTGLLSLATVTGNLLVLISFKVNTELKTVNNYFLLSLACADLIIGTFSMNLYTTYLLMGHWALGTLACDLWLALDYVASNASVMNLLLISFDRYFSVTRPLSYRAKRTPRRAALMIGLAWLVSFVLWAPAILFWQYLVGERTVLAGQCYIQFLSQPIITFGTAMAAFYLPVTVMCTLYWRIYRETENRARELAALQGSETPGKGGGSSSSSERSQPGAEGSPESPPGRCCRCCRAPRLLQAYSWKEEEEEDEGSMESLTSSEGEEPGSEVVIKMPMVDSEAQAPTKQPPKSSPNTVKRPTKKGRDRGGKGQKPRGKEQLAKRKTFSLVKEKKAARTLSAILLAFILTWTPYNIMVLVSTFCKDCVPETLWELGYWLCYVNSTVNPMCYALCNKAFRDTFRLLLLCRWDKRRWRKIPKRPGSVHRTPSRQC
- experimental-protocol: M1 PAM assay (FLIPR intracellular calcium), rat M1
- Type: cell-based
- test-settings: rat M1, FLIPR Ca2+; second value of the cell; read-out: ratM1 EC50
Label key: Criterion met means EC50 under 100 nM; Criterion not met means EC50 of 100 nM or more.

- compound: "COc1ccc(F)c2c(C(=O)N[C@H]3CCOC[C@@H]3O)cn(Cc3ccc(-c4cnn(C)c4)cc3F)c12"
  assigned-class: "Criterion met"
- compound: "Cc1cn(-c2ccc(Cn3cc(C(=O)N[C@H]4CCCC[C@@H]4O)c4c(F)c(F)ccc43)cc2)cn1"
  assigned-class: "Criterion not met"
- compound: "Cn1cc(-c2ccc(Cn3cc(C(=O)N[C@H]4CCCC[C@@H]4O)c4c(F)cccc43)cc2)cn1"
  assigned-class: "Criterion met"
- compound: "CNC(=O)c1ccc(Cn2cc(C(=O)NC3(C)CCOCC3)c3c(F)cccc32)cc1"
  assigned-class: "Criterion not met"
- compound: "Cn1cc(-c2ccc(Cn3nc(C(=O)N[C@@H]4CCCC[C@H]4O)c4c(F)cccc43)c(F)c2)cn1"
  assigned-class: "Criterion not met"
- compound: "CNC(=O)c1ccc(Cn2cc(C(=O)N[C@H]3CCCC[C@@H]3O)c3c(F)cccc32)cc1"
  assigned-class: "Criterion met"
- compound: "CCc1ccc(F)c2c(C(=O)NC3CCOCC3)cn(Cc3ccc(-c4cnn(C)c4)cc3)c12"
  assigned-class: "Criterion not met"
- compound: "Cn1cc(-c2ccc(Cn3cc(C(=O)NC4CCCCC4)c4c(F)cccc43)c(F)c2)cn1"
  assigned-class: "Criterion not met"
- compound: "Cn1cc(-c2ccc(Cn3cc(C(=O)N[C@H]4CCOC[C@@H]4O)c4c(F)cccc43)c(F)c2)cn1 (single isomer, unassigned) [Example 71]"
  assigned-class: "Criterion met"
- compound: "Cn1cc(-c2ccc(Cn3cc(C(=O)N[C@H]4CCC[C@@H]4O)c4c(F)cccc43)c(F)c2)cn1"
  assigned-class: "Criterion not met"
- compound: "O=C(N[C@H]1CCCC[C@@H]1O)c1cn(CC2CCN(c3ccncn3)CC2)c2cccc(F)c12"
  assigned-class: "Criterion not met"
- compound: "Cn1cc(-c2ccc(Cn3cc(C(=O)NC[C@H]4CCCO4)c4c(F)cccc43)cc2)cn1"
  assigned-class: "Criterion not met"
- compound: "CNC(=O)c1ccc(Cn2cc(C(=O)NC3CCCC(F)(F)C3)c3c(F)cccc32)cc1F (stereo not drawn)"
  assigned-class: "Criterion met"
- compound: "CNC(=O)c1ccc(Cn2cc(C(=O)NC3CCSCC3)c3c(F)cccc32)cc1"
  assigned-class: "Criterion met"
- compound: "Cn1cc(-c2ccc(Cn3cc(C(=O)N[C@@H]4CCOC[C@H]4O)c4c(F)cccc43)c(F)c2)cn1 (single isomer, unassigned)"
  assigned-class: "Criterion not met"
- compound: "Cn1cc(-c2ccc(Cn3cc(C(=O)N[C@H]4CCCC[C@]4(C)O)c4c(F)cccc43)c(F)c2)cn1 (racemic)"
  assigned-class: "Criterion not met"
- compound: "Cn1cc(-c2ccc(Cn3nc(C(=O)N[C@H]4CCCC[C@@H]4O)c4c(F)ccc(F)c43)c(F)c2)cn1"
  assigned-class: "Criterion not met"
- compound: "CNC(=O)c1ccc(Cn2cc(C(=O)NC3CCC(F)(F)CC3)c3c(F)cccc32)cc1"
  assigned-class: "Criterion met"
- compound: "O=C(N[C@H]1CCCC[C@@H]1O)c1cn(Cc2ccc(-c3ccccc3)nc2)c2cccc(F)c12"
  assigned-class: "Criterion not met"
- compound: "Cn1cc(-c2ccc(Cn3cc(C(=O)NC4CCOCC4)c4c(F)cccc43)cc2)cn1"
  assigned-class: "Criterion met"
- compound: "O=C(N[C@H]1CCOC[C@@H]1O)c1cn(Cc2ccc(N3CCCC3=O)cc2)c2cccc(F)c12"
  assigned-class: "Criterion not met"
- compound: "Cn1cc(-c2ccc(Cn3nc(C(=O)N[C@H]4CCOC[C@@H]4O)c4c(F)ccc(F)c43)c(F)c2)cn1"
  assigned-class: "Criterion met"
- compound: "CNC(=O)c1ccc(Cn2cc(C(=O)NC3CCOCC3C)c3c(F)cccc32)cc1 (stereo not drawn)"
  assigned-class: "Criterion met"
- compound: "Cn1cc(-c2ccc(Cn3cc(C(=O)NC4CCOCC4)c4c(F)ccc(F)c43)c(F)c2)cn1"
  assigned-class: "Criterion met"
- compound: "Cn1cc(-c2ccc(Cn3cc(C(=O)N[C@H]4CCOC[C@@H]4O)c4c(F)c(F)c(F)c(F)c43)c(F)c2)cn1 (single isomer, unassigned)"
  assigned-class: "Criterion met"
- compound: "CNC(=O)c1ccc(Cn2cc(C(=O)N[C@H]3CCCC[C@@H]3O)c3c(F)cccc32)cn1"
  assigned-class: "Criterion not met"
- compound: "CO[C@H]1COC[C@@H]1NC(=O)c1cn(Cc2ccc(-c3cnn(C)c3)cc2)c2cccc(F)c12"
  assigned-class: "Criterion not met"
- compound: "CNC(=O)c1ccc(Cn2cc(C(=O)NC3CCOC(C)(C)C3)c3c(F)cccc32)cc1 (stereo not drawn)"
  assigned-class: "Criterion met"
- compound: "NC(=O)c1ccc(Cn2cc(C(=O)N[C@H]3CCOC[C@@H]3O)c3c(F)cccc32)cc1 (racemic)"
  assigned-class: "Criterion met"
- compound: "O=C(N[C@H]1CCCC[C@@H]1O)c1cn(Cc2ccc(-c3nc[nH]n3)cc2)c2cccc(F)c12"
  assigned-class: "Criterion met"

Data credit: patent US9708259B2
